Type: in vivo
measurement.context: rat, PY 4 mg/kg oral, 24 hr urine collection; mean ± SD; unit ppb printed
Marks after values point to notes of the source that are not given here.
Below, each of the molecules is paired with its reported Concentration in urine value.

Here's what some known entries look like.
molecule	assay.value
c1cc2ccc3cccc4ccc(c1)c2c34	4.3 ± 0.0^d,e ppb
O=C(O)[C@H]1O[C@@H](Oc2ccc3ccc4cccc5ccc2c3c45)[C@H](O)[C@@H](O)[C@@H]1O [PYOG, Pyrene-1-glucuronide]	10.1 × 10^3 ± 400^c,d ppb
Oc1ccc2ccc3cccc4ccc1c2c34 [PYOH, 1-hydroxypyrene]	546 ± 78^b ppb

Here's the next entry for you.
// Concentration in urine value for O=S(=O)(O)Oc1ccc2ccc3cccc4ccc1c2c34 [PYOS, Pyrene-1-sulfate] : 13 ± 7^b ppb
